The origin of these recorded values is patent US7449545B2.

- Test system: Pseudomonas aeruginosa ATCC 9027
- Type: cell-based
- setupConditions: Mueller Hinton Broth; complete growth inhibition not achieved
Ends that are not written are not given here.
quantityMeasured: peptide concentration giving 75% inhibition of growth (value in parentheses)

{"columns": ["substance", "testSystem", "val"],
 "data": [
  ["YIVYKIRWAKKRWKALK-OH [BOL-60, YIVYKIRWAKKRWKALK]", "Pseudomonas aeruginosa ATCC 9027", "(18.75) μg/ml"],
  ["YIVYKIRSAWKRRK-OH [BOL-69, YIVYKIRSAWKRRK]", "Pseudomonas aeruginosa ATCC 9027", "(200) μg/ml"],
  ["KYIVYKIRSAWKRRKALK-OH [BOL-86, KYIVYKIRSAWKRRKALK]", "Pseudomonas aeruginosa ATCC 9027", "(18.75) μg/ml"],
  ["YIVWKIRSARKRWKALK-OH [BOL-81, YIVWKIRSARKRWKALK]", "Pseudomonas aeruginosa ATCC 9027", "(18.75) μg/ml"],
  ["YIVYKIRSARKRWKAL [BOL-68, YIVYKIRSARKRWKAL]", "Pseudomonas aeruginosa ATCC 9027", "(200) μg/ml"],
  ["YIVWKIRSARKRRKALK-OH [BOL-74, YIVWKIRSARKRRKALK]", "Pseudomonas aeruginosa ATCC 9027", "(12.5) μg/ml"],
  ["YIVYKIRWARKRSKALK-OH [BOL-49, YIVYKIRWARKRSKALK]", "Pseudomonas aeruginosa ATCC 9027", "(12.5) μg/ml"]
]}
